- measured-on: UniProtKB P30291
- Sequence (P30291 whole entry): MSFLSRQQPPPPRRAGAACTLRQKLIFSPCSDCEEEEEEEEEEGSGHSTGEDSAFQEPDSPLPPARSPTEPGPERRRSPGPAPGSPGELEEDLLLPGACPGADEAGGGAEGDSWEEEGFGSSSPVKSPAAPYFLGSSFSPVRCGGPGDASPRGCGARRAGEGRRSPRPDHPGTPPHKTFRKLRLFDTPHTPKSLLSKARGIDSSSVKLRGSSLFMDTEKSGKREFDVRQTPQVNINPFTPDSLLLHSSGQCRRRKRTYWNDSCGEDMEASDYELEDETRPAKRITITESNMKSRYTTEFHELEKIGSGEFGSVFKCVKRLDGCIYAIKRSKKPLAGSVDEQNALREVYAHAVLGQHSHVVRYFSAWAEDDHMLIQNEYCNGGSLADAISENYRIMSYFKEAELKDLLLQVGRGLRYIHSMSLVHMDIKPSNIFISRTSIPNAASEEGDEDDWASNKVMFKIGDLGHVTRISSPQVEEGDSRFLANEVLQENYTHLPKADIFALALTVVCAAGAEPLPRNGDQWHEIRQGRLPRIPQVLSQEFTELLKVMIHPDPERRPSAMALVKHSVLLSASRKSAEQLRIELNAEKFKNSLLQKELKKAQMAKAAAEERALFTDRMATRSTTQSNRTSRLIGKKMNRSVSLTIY
- measurement-description: Wee1 time-resolved fluorescence equilibrium binding assay (displacement of Oregon Green-labeled ATP-competitive kinase probe)
measured-parameter: pKi
Numbers only, as −log10 of the molar value.

The following compounds have reported results that may help.
Cc1cc(Nc2ncc3c(=O)n(-c4ccccc4Cl)nc(-c4ccccc4)c3n2)ccc1N1CCN(C(C)C)CC1	9.70
Cc1cc(Nc2ncc3c(=O)n(-c4ccccc4C)nc(-c4cccs4)c3n2)ccc1N1CCN(C(C)C)CC1	9.00
Cc1ccccc1-n1nc(-c2cccs2)c2nc(Nc3ccc(N4CCCC4=O)cc3)ncc2c1=O	8.22
Cc1ccccc1-n1nc(-c2cccs2)c2nc(Nc3ccc(N4CCN(C(C)C)CC4)cc3)ncc2c1=O	9.00
CN1CCN(c2ccc(Nc3ncc4c(=O)n(-c5ccccc5)nc(-c5cccnc5Cl)c4n3)cc2)CC1	7.32
Cc1cccc(-c2nn(-c3ccccc3)c(=O)c3cnc(Nc4ccc(N5CCN(C)CC5)cc4)nc23)c1	8.30

Lab note: each compound below needs its pKi filled in.
1. CCc1nn(-c2c(Cl)cccc2Cl)c(=O)c2cnc(Nc3ccc(N4C[C@H]5C[C@@H]4CN5)cc3)nc12
2. Cc1nn(-c2c(Cl)cccc2Cl)c(=O)c2cnc(Nc3ccc4c(c3)CCNC4(C)C)nc12
3. CN1Cc2cc(Nc3ncc4c(=O)n(-c5c(Cl)cccc5Cl)nc(C(F)(F)F)c4n3)ccc2C2(CC2)C1
4. Cc1ccccc1-n1nc(-c2ccccc2)c2nc(Nc3ccc(CN(C)C)cc3)ncc2c1=O
5. CN(C)C1Cc2ccc(Nc3ncc4c(=O)n(-c5c(Cl)cccc5Cl)nc(C(F)F)c4n3)cc2C1 (stereo not drawn)
6. Cc1nn(-c2ccccc2Cl)c(=O)c2cnc(Nc3ccc4c(c3)CNCC4(C)C)nc12
7. CN1CCN(c2ccc(Nc3ncc4c(=O)n(-c5c(Cl)cccc5Cl)nc(-c5cccc(CNC6CCC6)c5)c4n3)cc2)CC1

**Result**
1: 9.16; 2: 9.80; 3: 9.47; 4: 8.60; 5: 9.39; 6: 9.51; 7: 9.70

Lab note: each compound below needs its pKi filled in.
1. CN(C)CCn1cc(-c2nn(-c3c(Cl)cccc3Cl)c(=O)c3cnc(Nc4ccc(N5CCN(C)CC5)cc4)nc23)cn1
2. CN1Cc2cc(Nc3ncc4c(=O)n(-c5c(Cl)cccc5Cl)nc(C5CCC5)c4n3)ccc2C2(CC2)C1
3. Cc1nn(-c2c(Cl)cccc2Cl)c(=O)c2cnc(Nc3ccc(C4CCN(C)CC4)cc3)nc12
4. CC1(C)CNCc2cc(Nc3ncc4c(=O)n(-c5ccccn5)nc(-c5ccccn5)c4n3)ccc21
5. Cc1nn(-c2c(Cl)cccc2Cl)c(=O)c2cnc(Nc3cc4c(cc3F)CNCC4)nc12
6. CN1CCN(c2ccc(Nc3ncc4c(=O)n(-c5c(Cl)cncc5Cl)nc(-c5cn(C)cn5)c4n3)cc2)CC1
7. COc1cc(Nc2ncc3c(=O)n(-c4ccccc4Cl)nc(-c4cccs4)c3n2)ccc1N1CCN(C(C)C)CC1

**Result**
1. 9.22
2. 9.29
3. 9.30
4. 7.92
5. 8.89
6. 8.36
7. 10.00

Lab note: each compound below needs its pKi filled in.
1. Cc1nn(C)c(=O)c2cnc(Nc3ccc(N4CCN(C)CC4)cc3)nc12
2. O=c1c2cnc(Nc3ccc4c(c3)CNCC4)nc2c(-c2cncs2)nn1-c1c(Cl)cccc1Cl
3. CC1CCCC(C)C1n1nc(-c2ccccn2)c2nc(Nc3ccc4c(c3)CN(C)CC4(C)C)ncc2c1=O (stereo not drawn)
4. CN1CCN(c2ccc(Nc3ncc4c(=O)n(-c5c(F)cccc5Cl)nc(-c5cccc(O)n5)c4n3)cc2)CC1
5. COCc1nn(-c2c(Cl)cccc2Cl)c(=O)c2cnc(Nc3ccc4c(c3)CN(C)CC43CC3)nc12
6. COc1cc(N2CCC(N3CCN(C)CC3)CC2)ccc1Nc1ncc2c(=O)n(-c3c(Cl)cccc3Cl)nc(C)c2n1
7. Cc1nn(-c2c(Cl)cccc2Cl)c(=O)c2cnc(Nc3cccc(C(=O)NC4CCNCC4)c3)nc12

**Result**
5.72
9.59
6.59
8.55
9.32
7.40
9.52

Lab note: each compound below needs its pKi filled in.
1. O=c1c2cnc(Nc3ccc(N4CCNCC4)cc3)nc2c(C2CCC2)nn1-c1c(Cl)cccc1Cl
2. CN1CCN(c2ccc(Nc3ncc4c(=O)n(-c5c(Cl)cccc5Cl)nc(-c5ccccn5)c4n3)cc2)CC1

**Result**
1. 8.92
2. 9.70
